test target: Quinone-dependent D-lactate dehydrogenase (Escherichia coli (strain K12), UniProt P06149)
Sequence (P06149 whole entry): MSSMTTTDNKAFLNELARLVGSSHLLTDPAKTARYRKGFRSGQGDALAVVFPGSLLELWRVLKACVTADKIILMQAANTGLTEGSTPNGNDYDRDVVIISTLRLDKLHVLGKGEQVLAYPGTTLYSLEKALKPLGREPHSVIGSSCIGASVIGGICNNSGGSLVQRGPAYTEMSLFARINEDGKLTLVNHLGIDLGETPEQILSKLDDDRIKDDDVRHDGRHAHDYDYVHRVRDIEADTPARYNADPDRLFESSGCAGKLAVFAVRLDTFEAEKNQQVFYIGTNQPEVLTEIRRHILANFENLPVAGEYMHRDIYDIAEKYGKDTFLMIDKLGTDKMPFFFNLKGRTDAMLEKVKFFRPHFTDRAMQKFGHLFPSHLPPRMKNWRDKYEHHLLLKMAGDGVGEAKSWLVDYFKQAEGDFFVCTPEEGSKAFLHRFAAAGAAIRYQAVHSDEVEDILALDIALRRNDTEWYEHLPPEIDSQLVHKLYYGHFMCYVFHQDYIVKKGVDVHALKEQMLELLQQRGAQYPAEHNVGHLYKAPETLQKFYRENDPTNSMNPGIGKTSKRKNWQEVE
method summary: Steady-State Inhibition Assay
condition summary: pH 7.4
Form field: pKi (one value per entry).
In simple prose, pKi is minus the logarithm base ten of a concentration in moles per litre.

Examples with their reported pKi follow.
> print(dat)
                                 smiles.str  assay.result
1  Cc1ccc(Oc2ccc(NC(=O)CN3C(=O)/C(=C/c4ccc(O)c(O)c4)SC3=S)cc2)cc1          4.92
2  O=C(O)CN1C(=O)/C(=C/c2ccc(O)c(O)c2)SC1=S          4.26
3  O=C(CCCCN1C(=O)/C(=C/c2ccc(O)c(O)c2)SC1=S)NCc1ccc(Cl)c(Cl)c1          7.38

query: Field request: pKi | item: `O=C(CN1C(=O)/C(=C/c2ccc(O)c(O)c2)SC1=S)NCCSc1cc(C(=O)O)nc(C(=O)O)c1`
result: 6.21

----------
Each entry below carries its recorded Ki.
test target: 1-deoxy-D-xylulose 5-phosphate reductoisomerase (Escherichia coli (strain K12), UniProt P45568)
Sequence (P45568 whole entry): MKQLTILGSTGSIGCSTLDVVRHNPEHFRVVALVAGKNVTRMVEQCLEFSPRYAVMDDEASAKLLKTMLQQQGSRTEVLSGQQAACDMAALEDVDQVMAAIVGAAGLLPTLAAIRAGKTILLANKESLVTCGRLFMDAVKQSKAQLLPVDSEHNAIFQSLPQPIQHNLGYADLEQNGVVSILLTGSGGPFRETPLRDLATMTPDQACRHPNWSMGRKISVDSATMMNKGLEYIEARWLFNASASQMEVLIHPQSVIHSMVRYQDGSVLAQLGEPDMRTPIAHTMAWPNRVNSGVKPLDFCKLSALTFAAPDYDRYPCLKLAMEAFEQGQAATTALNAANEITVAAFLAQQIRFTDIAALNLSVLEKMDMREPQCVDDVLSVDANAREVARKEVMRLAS
method summary: Steady-State Inhibition Assay
condition summary: pH 7.4
// units = µM; emit number, no label

Use these answered entries as a reference point.
> print(dat)
                                   molecule  measure.unit  assay.result
1  O=C(CCCCN1C(=O)/C(=C/c2ccc(O)c(O)c2)SC1=S)NCc1ccc(Cl)c(Cl)c1 [Bi-ligand, 2]            µM            10
2  O=C(CN1C(=O)/C(=C/c2ccc(O)c(O)c2)SC1=S)NCCSc1cc(C(=O)O)nc(C(=O)O)c1 [Bi-ligand, 4]            µM           7.9

query: I'd like to know its Ki. The molecule in question is Cc1ccc(Oc2ccc(NC(=O)CN3C(=O)/C(=C/c4ccc(O)c(O)c4)SC3=S)cc2)cc1 [Bi-ligand, 3]
result: 0.202

----------
test target: 4-hydroxy-tetrahydrodipicolinate reductase (Escherichia coli (strain K12), UniProt P04036)
Sequence (P04036 whole entry): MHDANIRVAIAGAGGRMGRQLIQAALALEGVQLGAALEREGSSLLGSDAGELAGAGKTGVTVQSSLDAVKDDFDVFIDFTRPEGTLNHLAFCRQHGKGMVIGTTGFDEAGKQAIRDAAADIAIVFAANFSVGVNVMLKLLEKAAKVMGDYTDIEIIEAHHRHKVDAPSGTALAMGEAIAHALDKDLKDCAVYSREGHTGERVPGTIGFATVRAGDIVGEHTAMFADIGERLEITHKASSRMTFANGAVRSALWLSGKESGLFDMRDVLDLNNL
method summary: Steady-State Inhibition Assay
condition summary: pH 7.4
readout type: pKi
Lab note — pKi values are minus log10 of concentrations in M.

> print(dat)
                                 smiles.str  assay.result
1  O=C(CN1C(=O)/C(=C/c2ccc(O)c(O)c2)SC1=S)NCCSc1cc(C(=O)O)nc(C(=O)O)c1          7.00

// next entry
query: Look up pKi with 4-hydroxy-tetrahydrodipicolinate reductase (Escherichia coli (strain K12), UniProt P04036) for this molecule: `O=C(O)CN1C(=O)/C(=C/c2ccc(O)c(O)c2)SC1=S`
result: 7.59
